The reader will find reported pIC50 values listed item by item below.
Experimental Target: KRAS WT (Homo sapiens (Human), UniProt P01116+P62937)
Sequence (P01116-2 other isoform, or with tags, fused parts or gaps): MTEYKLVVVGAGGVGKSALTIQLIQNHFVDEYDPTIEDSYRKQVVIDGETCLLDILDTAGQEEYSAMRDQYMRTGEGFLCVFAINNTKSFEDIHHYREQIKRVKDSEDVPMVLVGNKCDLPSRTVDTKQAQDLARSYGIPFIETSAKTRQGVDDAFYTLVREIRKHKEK
Sequence (P62937 whole entry): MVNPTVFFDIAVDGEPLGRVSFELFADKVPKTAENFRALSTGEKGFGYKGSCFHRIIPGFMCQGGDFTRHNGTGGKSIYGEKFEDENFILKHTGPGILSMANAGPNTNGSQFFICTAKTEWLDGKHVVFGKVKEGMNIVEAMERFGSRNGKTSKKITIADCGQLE
Protocol: Ras-Raf (BRAF RBD) disruption / FRET / MOA assay, KRAS WT
Type: biochemical
Condition Context: read-out: IC50* KRAS WT FRET data
pIC50: −log10 of the molar value.

Example entries and their recorded answers appear below.
compound="C=CC(=O)N1CC[C@@H]2[C@H](C1)CN2C(=O)N(C)[C@H](C(=O)N[C@H]1Cc2nc(cs2)-c2ccc3c(c2)c(c(-c2cccnc2[C@H](C)OC)n3CC)CC(C)(C)COC(=O)[C@@H]2CCCN(N2)C1=O)C(C)C (atropisomer, axis not shown)" measured_endpoint=pIC50 experimental_value="6.00 to 7.00"
compound="CC#CC(=O)N1CC[C@H](C(=O)N(C)[C@H](C(=O)N[C@H]2Cc3nc(cs3)-c3ccc4c(c3)c(c(-c3cccnc3[C@H](C)OC)n4CC)CC(C)(C)COC(=O)[C@@H]3CCCN(N3)C2=O)C2CCCC2)C1 (atropisomer, axis not shown)" measured_endpoint=pIC50 experimental_value="5.00 to 6.00"

For `C=CC(=O)N1CCO[C@H]2CN(C(=O)N(C)[C@H](C(=O)N[C@H]3C[C@H]4CN(CCO4)c4ccc5c(c4)c(c(-c4cccnc4[C@H](C)OC)n5CC)CC(C)(C)COC(=O)[C@@H]4CCCN(N4)C3=O)C(C)C)C[C@H]21` , what is its reported pIC50?
5.00 to 6.00

For CCn1c(-c2cccnc2[C@H](C)OC)c2c3cc(ccc31)-c1csc(n1)C[C@H](NC(=O)[C@H](C(C)C)N(C)C(=O)N1CC(N(C)C(=O)/C=C/CN(C)C)C1)C(=O)N1CCC[C@H](N1)C(=O)OCC(C)(C)C2 (atropisomer, axis not shown) , what is its reported pIC50?
6.00 to 7.00

* * *

The reader will find reported pIC50 values listed item by item below.
Experimental Target: NRAS WT (Homo sapiens (Human), UniProt P01111+P62937)
Sequence (P01111 whole entry, one chain of several): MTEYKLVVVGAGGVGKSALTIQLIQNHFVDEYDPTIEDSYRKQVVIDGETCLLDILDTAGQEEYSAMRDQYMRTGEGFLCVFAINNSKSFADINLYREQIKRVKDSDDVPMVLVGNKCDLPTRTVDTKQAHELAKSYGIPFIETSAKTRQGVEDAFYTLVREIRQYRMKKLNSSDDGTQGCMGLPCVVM
Protocol: Ras-Raf (BRAF RBD) disruption / FRET / MOA assay, NRAS WT
Format: biochemical
Condition Context: read-out: IC50* NRAS WT FRET data
pIC50: −log10 of the molar value.

Example entries and their recorded answers appear below.
molecule="C=CC(=O)N(C)CCN1CCN(C(=O)N(C)[C@H](C(=O)N[C@H]2Cc3cccc(c3)-c3ccc4c(c3)c(c(-c3cccnc3[C@H](C)OC)n4CC)CC(C)(C)COC(=O)[C@@H]3CCCN(N3)C2=O)C(C)C)C[C@@H]1C (atropisomer, axis not shown)" experimental_value="6.00 to 7.00"
molecule="C=CC(=O)N1CC[C@H](C(=O)N(C)[C@H](C(=O)N[C@H]2Cc3cc(C)cc(c3)-c3ccc4c(c3)c(c(-c3cccnc3[C@H](C)OC)n4CC)CC(C)(C)COC(=O)[C@@H]3CCCN(N3)C2=O)C(C)C)C1 (atropisomer, axis not shown)" experimental_value="5.00 to 6.00"
molecule="C=CC(=O)N1CC[C@H](C(=O)N(C)[C@H](C(=O)N[C@H]2Cc3csc(n3)-c3ccc4c(c3)c(c(-c3cccnc3[C@H](C)OC)n4CC)CC(C)(C)COC(=O)[C@@H]3CCCN(N3)C2=O)C(C)C)C1 (atropisomer, axis not shown)" experimental_value="5.00 to 6.00"
molecule=C=CC(=O)N1CC[C@H](C(=O)N(C)[C@H](C(=O)N[C@H]2Cc3cc(O)cc(c3)-c3ccc4c(c3)c(c(-c3cnc(N(C)C)s3)n4CC)CC(C)(C)COC(=O)[C@@H]3CCCN(N3)C2=O)C(C)C)C1 experimental_value="< 5.00"
molecule="C=CC(=O)N1C[C@H](C)N(C(=O)N(C)[C@H](C(=O)N[C@H]2Cc3nc(cs3)-c3ccc4c(c3)c(c(-c3cccnc3[C@H](C)OC)n4CC)CC(C)(C)COC(=O)[C@@H]3CCCN(N3)C2=O)C(C)C)CC12CC2 (atropisomer, axis not shown)" experimental_value="6.00 to 7.00"

Checklist item: pIC50 tested on NRAS WT (Homo sapiens (Human), UniProt P01111+P62937), entry CCn1c(-c2cccnc2[C@H](C)OC)c2c3cc(ccc31)-c1cccc(c1)C[C@H](NC(=O)C(COC1CN(C(=O)C#CC(C)(C)N(C)C)C1)C(C)C)C(=O)N1CCC[C@H](N1)C(=O)OCC(C)(C)C2 (stereo partly drawn) , value?
< 5.00

Checklist item: pIC50 tested on NRAS WT (Homo sapiens (Human), UniProt P01111+P62937), entry C=CC(=O)N1CC(OC[C@H](C(=O)N[C@H]2Cc3cccc(c3)-c3ccc4c(c3)c(c(-c3cccnc3[C@H](C)OC)n4CC(F)(F)F)CC(C)(C)COC(=O)[C@@H]3CCCN(N3)C2=O)C(C)C)C1 (atropisomer, axis not shown) , value?
5.00 to 6.00

Checklist item: pIC50 tested on NRAS WT (Homo sapiens (Human), UniProt P01111+P62937), entry C=CC(=O)N1CC[C@@]2(COCCN2C(=O)N(C)[C@H](C(=O)N[C@H]2Cc3nc(cs3)-c3ccc4c(c3)c(c(-c3cccnc3[C@H](C)OC)n4CC)CC(C)(C)COC(=O)[C@@H]3CCCN(N3)C2=O)C(C)C)C1 (atropisomer, axis not shown) , value?
6.00 to 7.00

* * *

Experimental Target: NRAS WT (Homo sapiens (Human), UniProt P01111+P62937)
Protocol: Ras-Raf (BRAF RBD) disruption / FRET / MOA assay, NRAS WT
Type: biochemical
Condition Context: read-out: IC50* NRAS WT FRET data
Measured Endpoint: IC50

Example entries and their recorded answers appear below.
compound="C=C(F)C(=O)N1CC(N(C)C(=O)N(C)[C@H](C(=O)N[C@H]2Cc3nc(cs3)-c3ccc4c(c3)c(c(-c3cccnc3[C@H](C)OC)n4CC)CC(C)(C)COC(=O)[C@@H]3CCCN(N3)C2=O)C(C)C)C1 (atropisomer, axis not shown) [Example A732]" measured_endpoint=IC50 experimental_value="0.1 to 1 µM"
compound="C=CC(=O)N1CC[C@H](C(=O)N(C)[C@H](C(=O)N[C@H]2C[C@H]3CN(CCO3)c3ccc4c(c3)c(c(-c3cccnc3[C@H](C)OC)n4CC)CC(C)(C)COC(=O)[C@@H]3CCCN(N3)C2=O)C(C)C)C1 (atropisomer, axis not shown) [Example A378]" measured_endpoint=IC50 experimental_value="1 to 10 µM"
compound="CCn1c(-c2cccnc2[C@H](C)OC)c2c3cc(ccc31)-c1csc(n1)C[C@H](NC(=O)[C@H](C(C)C)N(C)C(=O)N1C[C@H]3CN(C(=O)C#CC(C)(C)N(C)C)CC[C@H]31)C(=O)N1CCC[C@H](N1)C(=O)OCC(C)(C)C2 (atropisomer, axis not shown) [Example A624]" measured_endpoint=IC50 experimental_value="0.1 to 1 µM"

Pending compound:
For CCn1c(-c2cccnc2[C@H](C)OC)c2c3cc(ccc31)-c1cccc(c1)C[C@H](NC(=O)[C@H](C(C)C)N1CC[C@]3(CCN(C(=O)C#CC(C)(C)N(C)C)C3)C1=O)C(=O)N1CCC[C@H](N1)C(=O)OCC(C)(C)C2 (atropisomer, axis not shown) [Example A534] , what is its reported IC50?
1 to 10 µM

* * *

Experimental Target: KRAS WT (Homo sapiens (Human), UniProt P01116+P62937)
Protocol: Ras-Raf (BRAF RBD) disruption / FRET / MOA assay, KRAS WT
Assay type: biochemical
Condition Context: read-out: IC50* KRAS WT FRET data
pIC50: −log10 of the molar value.
The reader will find reported pIC50 values listed item by item below.

Example entries and their recorded answers appear below.
compound="C=CC(=O)N(C)[C@H]1CN(C(=O)N(C)[C@H](C(=O)N[C@H]2Cc3nc(cs3)-c3ccc4c(c3)c(c(-c3cccnc3[C@H](C)OC)n4CC)CC(C)(C)COC(=O)[C@@H]3CCCN(N3)C2=O)C(C)C)C[C@H]1F (atropisomer, axis not shown)" experimental_value="6.00 to 7.00"
compound="CCn1c(-c2cccnc2[C@H](C)OC)c2c3cc(ccc31)-c1cccc(c1)C[C@H](NC(=O)[C@H](C(C)C)N(C)C(=O)[C@H]1CCN(C(=O)C#CC3CCO3)C1)C(=O)N1CCC[C@H](N1)C(=O)OCC(C)(C)C2 (mixture of isomers)" experimental_value="5.00 to 6.00"
compound="CCn1c(-c2cccnc2[C@H](C)OC)c2c3cc(ccc31)-c1cccc(c1)C[C@H](NC(=O)[C@H](C(C)C)N(C)C(=O)[C@H]1CCN(C(=O)/C=C/CN3CC(OC)C3)C1)C(=O)N1CCC[C@H](N1)C(=O)OCC(C)(C)C2 (atropisomer, axis not shown) [Example A204]" experimental_value="5.00 to 6.00"

For `CCn1c(-c2cccnc2[C@H](C)OC)c2c3cc(ccc31)C1CCCN(C1)C[C@H](NC(=O)[C@@H](COC1CN(C(=O)C#CC(C)(C)N(C)C)C1)C(C)C)C(=O)N1CCC[C@H](N1)C(=O)OCC(C)(C)C2` , what is its reported pIC50?
< 5.00
